Where these numbers come from: patent US20100233272A1

Assay: physchem
Conditions: pH 7, aqueous buffer
attribute-measured: solubility

| molecule | observed-result |
| --- | --- |
| Cc1ccc(-c2cc(C(F)(F)F)nn2-c2ccc(S(N)(=O)=O)cc2)cc1 [celecoxib] | 11.6 µg/mL |
